# credit: patent US20220298257A1

Molecular target: T1, human CD22-Fc fusion protein (human, UniProt P20273 20-687, limits assumed)
T1 construct: also called recombinant CD22-Fc fusion protein; not shown: Fc part
T1 sequence (looked up): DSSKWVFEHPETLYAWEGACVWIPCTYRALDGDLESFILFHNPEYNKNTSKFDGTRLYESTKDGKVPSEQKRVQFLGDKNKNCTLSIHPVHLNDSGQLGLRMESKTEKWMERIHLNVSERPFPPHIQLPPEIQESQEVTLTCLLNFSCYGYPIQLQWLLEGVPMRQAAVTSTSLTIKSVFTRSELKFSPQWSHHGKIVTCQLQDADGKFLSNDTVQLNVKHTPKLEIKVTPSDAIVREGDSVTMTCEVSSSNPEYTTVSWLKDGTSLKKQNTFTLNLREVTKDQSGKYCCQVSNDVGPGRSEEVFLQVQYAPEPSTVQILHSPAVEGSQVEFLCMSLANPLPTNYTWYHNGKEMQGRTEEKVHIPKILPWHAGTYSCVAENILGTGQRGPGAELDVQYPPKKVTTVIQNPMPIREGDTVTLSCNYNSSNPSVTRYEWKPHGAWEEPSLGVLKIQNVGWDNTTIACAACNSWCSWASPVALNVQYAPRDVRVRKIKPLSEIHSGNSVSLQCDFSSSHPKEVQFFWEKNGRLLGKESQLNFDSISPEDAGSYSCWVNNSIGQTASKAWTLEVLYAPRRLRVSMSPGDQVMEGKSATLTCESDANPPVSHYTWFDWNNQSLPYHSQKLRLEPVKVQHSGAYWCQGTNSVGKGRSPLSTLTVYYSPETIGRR
Assay: SPR Biacore T200; CD22-Fc captured on Protein G chip, scFv as analyte;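 further: run in 1×HBST buffer, with the response of reference flow cell 1 subtracted from the CD22 capture cell and kinetics fitted in Biacore T200 evaluation software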
Readout: koff (s⁻¹)

{"columns": ["Binder", "Measurement"],
 "data": [
  ["EP97-B03 scFv (scFv, VH-VL orientation; not shown: C-terminal flag and 6xHIS tag) scFv: QLVQSGAEVKKPGASVKVSCKASGYTFSSYGITWVRQAPGQGLEWMGWISAYNGNTNYAQKFQGRVTLTTDTSTSIAYMELRSLTSDDTAVYYCATGGQEDYWGQGTLVTVSSGGGGSGGGGSGGGGSEIVLTQSPATLSVSPGERATLSCRASQSVSSNLAWYQQKPGQAPRLLIYGASTRATGIPARFSGSGSGTEFTLTISSLQSEDFAVYYCQQYNSWPPLTFGGGTKVEIK", 0.000318]
]}
